- Target Or Test System: human Retinoid X Receptor beta (RXRb), RXRB (gene 6257) (UniProt P28702)
- Sequence (P28702 whole entry, looked up): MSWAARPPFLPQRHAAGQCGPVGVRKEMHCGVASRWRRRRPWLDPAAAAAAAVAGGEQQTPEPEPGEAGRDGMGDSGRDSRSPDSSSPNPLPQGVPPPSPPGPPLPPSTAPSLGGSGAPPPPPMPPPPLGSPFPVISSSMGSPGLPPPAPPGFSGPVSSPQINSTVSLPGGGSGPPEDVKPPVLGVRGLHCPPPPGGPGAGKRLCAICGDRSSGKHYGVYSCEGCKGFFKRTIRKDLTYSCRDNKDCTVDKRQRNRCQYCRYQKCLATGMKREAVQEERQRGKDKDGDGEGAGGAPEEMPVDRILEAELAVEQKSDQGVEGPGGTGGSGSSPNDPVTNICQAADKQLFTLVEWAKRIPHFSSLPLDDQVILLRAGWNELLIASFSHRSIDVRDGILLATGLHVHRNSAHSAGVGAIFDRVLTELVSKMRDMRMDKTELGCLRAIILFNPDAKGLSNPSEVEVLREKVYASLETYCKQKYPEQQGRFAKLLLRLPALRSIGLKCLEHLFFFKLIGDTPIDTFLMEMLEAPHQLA
- Assay Notes: ATG_RXRb_TRANS: Attagene TRANS-FACTORIAL HepG2 Assay for human Retinoid X Receptor beta (RXRb) (AID 2283013)
- Experimental: ATG_TRANS is a cell-based, multiplexed-readout assay that uses HepG2, a human liver cell line, with measurements taken at 24 hours after chemical dosing in a 24-well plate.ATG_RXRb_TRANS is one of 30 assay component(s) measured or calculated from the ATG_TRANS assay. […] This assay endpoint, ATG_RXRb_TRANS, was analyzed in the positive analysis fitting direction relative to DMSO as the negative control and baseline of activity. […]
Results filed as inconclusive are left out. The source made the active and inactive calls. How the source made its calls: active means hit-call score of the fitted dose curve at least 0.9, where 1 is the maximum; inconclusive means response in the unintended direction; inactive means score below 0.9.
Reply using exactly one outcome from active, inactive

Test call, this molecule: Cc1ccccc1CCO inactive

Next up: Cc1cc(C)n(CO)n1 inactive

Next up: CC1C(C)(C)C2=C(C(=O)CCC2)C1(C)C (stereo not drawn) active

* * *

- Assay Notes: ATG_VDRE_CIS: Attagene CIS-FACTORIAL HepG2 Assay for human Vitamin D Receptor Element (VDRE) (AID 2282968)
- Condition Description: HepG2 VDRE cis-reporter transcription, actives raise or lower the signal
- Protocol: ATG_CIS is a cell-based, multiplexed-readout assay that uses HepG2, a human liver cell line, with measurements taken at 24 hours after chemical dosing in a 24-well plate.ATG_VDRE_CIS is one of 52 assay component(s) measured or calculated from the ATG_CIS assay. […] This assay endpoint, ATG_VDRE_CIS, was analyzed with bidirectional fitting relative to DMSO as the negative control and baseline of activity. […]
The source made the active and inactive calls. How the source made its calls: active means hit-call score of the fitted dose curve at least 0.9, where 1 is the maximum; inactive means score below 0.9.
Reply using exactly one outcome from active, inactive

Test call, this compound: CCCCC(CC)COS(=O)(=O)O (stereo unspecified) inactive

Next up: CCCCCCCC(=O)OCC inactive

Next up: O=C(O)CC(C(=O)O)S(=O)(=O)O (stereo unspecified) inactive

Next up: Cc1c(Cl)cccc1Cl inactive

Next up: CC(C)(C)NC(=O)[C@H]1CC[C@H]2[C@@H]3CC[C@H]4NC(=O)C=C[C@]4(C)[C@H]3CC[C@]12C inactive

Next up: CCOC(=O)[C@H](O)[C@@H](O)C(=O)OCC inactive

Next up: CC1(C)[C@@H]2CC[C@@]1(C)C(=O)C2 inactive

Next up: CCCCC1C(=O)N(c2ccccc2)N(c2ccccc2)C1=O inactive

Next up: CCCCCCCCCCCCCCCCCCOS(=O)(=O)O active

Next up: CCCCOC(=O)C(C)CC (stereo unspecified) inactive

Next up: CC(CCC(=O)O)(c1ccc(O)cc1)c1ccc(O)cc1 inactive

Next up: C=C(C)C(=O)OCCCCCCCCCCCC inactive

Next up: CCC1(C)C(=O)N(Cl)C(=O)N1Cl (stereo unspecified) active

Next up: Cc1ccccc1CCO inactive

Next up: COCC(=O)O inactive

Next up: C=Cc1ccc(OC(C)=O)cc1 inactive

Next up: Cc1c(O)cccc1O inactive

Next up: C=C(C)C(=O)OCC(O)COc1ccc(C(C)(C)c2ccc(OCC(O)COC(=O)C(=C)C)cc2)cc1 (stereo unspecified) active

Next up: CC(C)(CO)C(O)C(=O)NCCCO (stereo unspecified) inactive

Next up: CC(C=O)c1ccccc1 (stereo unspecified) active

Next up: CCCCCCCOC(=O)c1ccc(O)cc1 inactive

Next up: CC(C)=NNC(N)=S inactive

Next up: Oc1ccccc1Cc1ccccc1O active

Next up: CC(C)c1cccc(C(C)C)c1N inactive

Next up: CC(=O)OC1CCCCC1 inactive

Next up: Cn1ccnc1 inactive

Next up: CCCCCCCCCCCC(=O)N(C)CC(=O)O inactive

Next up: CCCSSCCC inactive

Next up: O=C(Nc1ccccc1)c1cc(Cl)ccc1O active

Next up: OCCCc1ccccc1 inactive

Next up: CCCCCCCCCCCCc1ccc(O)cc1 inactive

Next up: CC(c1cc(C(C)(C)C)cc(C(C)(C)C)c1O)c1cc(C(C)(C)C)cc(C(C)(C)C)c1O inactive

Next up: CCCCCCCCCCCC(C)=O inactive

Next up: C=CC(=O)NC(C)(C)C inactive

Next up: CC/C=C\C/C=C\C/C=C\CCCCCCCC(=O)OC inactive

Next up: CCCCCCO inactive

Next up: c1ccc2sc(SSN3CCOCC3)nc2c1 inactive

Next up: Cc1c(C(=O)c2c[nH]n(C)c2=O)ccc(S(C)(=O)=O)c1C1=NOCC1 inactive

Next up: CCCCCC[C@@H](O)C/C=C\CCCCCCCC(=O)OCC(O)CO (stereo partly specified) inactive

Next up: CCCC(C)C(=O)OCC (stereo unspecified) inactive

Next up: CCC(C)N (stereo unspecified) inactive

Source listed as PubChem BioAssay (EPA / NIEHS).
